Tested on: Kochia scoparia (KCHSC)
Experiment: Herbicidal pre-emergence action, section A (Table A4)
Assay type: in vivo
Conditions: Bassia scoparia, pre-emergence, 504 h; application rate 1280 g/ha; visual grading after ca. 3 weeks vs untreated controls; read-out: pre-emergence activity against KCHSC in %
observed property: pest or weed control at 1280 g/ha (%)
Enter your answer as a number in %; do not include the unit.

molecule	endpoint result
CCS(=O)(=O)N1C[S+]([O-])c2cc(Br)c(-c3ccccc3Cl)nc21 (stereo not drawn)	90
COc1ccccc1-c1nc2c(cc1C)[S+]([O-])CN2S(C)(=O)=O (stereo not drawn)	90

Ask: Answer with the recorded pest or weed control at 1280 g/ha of Cc1cscc1-c1nc2c(cc1C)[S+]([O-])CN2 (stereo not drawn) only.
Reply: 90

Ask: Answer with reported pest or weed control at 1280 g/ha of CCS(=O)(=O)N1C[S+]([O-])c2cc(C)c(-c3ccccc3C)nc21 (stereo not drawn)
Reply: 100

Ask: Return value of pest or weed control at 1280 g/ha for input Cc1cc2c(nc1-c1ccccc1F)NCS2 , no commentary.
Reply: 90

Ask: For CC1(C(=O)N2CSc3cc(Br)c(-c4ccccc4Cl)nc32)CC(Cl)=NO1 (stereo not drawn) , write its pest or weed control at 1280 g/ha.
Reply: 100

Ask: Supply measured pest or weed control at 1280 g/ha of NB1OB(N2CSc3cc(Br)c(-c4ccccc4Cl)nc32)O1 in your reply.
Reply: 90

Ask: Provide one value: measured pest or weed control at 1280 g/ha of CCS(=O)(=O)N1CSc2cc(C)c(-c3ccccc3F)nc21
Reply: 100

Ask: Please supply the value of reported pest or weed control at 1280 g/ha for the item CCOCCS(=O)(=O)N1C[S+]([O-])c2cc(C)c(-c3ccccc3F)nc21 (stereo not drawn)
Reply: 100

###

Measured pre-emergence activity against ZEAMX in % (crop plant damage) values are reported for all entries that follow.
Tested on: Zea mays (ZEAMX)
Assay: Pre-emergence effects on crop plants, section D (Table D1)
Type: in vivo
Conditions: application rate 80 g/ha; visual grading after ca. 3 weeks

Examples with answers:
compound	tgt	endpoint result
CC1(C(=O)N2CSc3cc(Br)c(-c4ccccc4Cl)nc32)CC(Cl)=NO1 (centres unmarked)	Zea mays (ZEAMX)	0%
COCCOCCOCC(=O)N1CSc2cc(Br)c(-c3cccc(F)c3F)nc21	Zea mays (ZEAMX)	0%
Clc1ccccc1-c1nc2c(cc1Br)SCN2	Zea mays (ZEAMX)	0%
CCS(=O)(=O)N1C[S+]([O-])c2cc(C)c(-c3ccccc3C)nc21 (centres unmarked)	Zea mays (ZEAMX)	0%
Cc1cc2c(nc1-c1ccccc1F)N(C(=O)C13CCCC1C(Cl)=NO3)CS2 (centres unmarked)	Zea mays (ZEAMX)	0) %

Ask: Look up and state reported pre-emergence activity against ZEAMX in % (crop plant damage) for Cc1cc2c(nc1-c1ccccc1F)N(C(=O)C1CC1)CS2
Reply: 20%

Ask: Let me know recorded pre-emergence activity against ZEAMX in % (crop plant damage) for Cc1cc2c(nc1-c1ccccc1Cl)NCS2 , thanks.
Reply: 10%

Ask: Consider the compound COCC1(C(=O)N2CSc3cc(C)c(-c4ccccc4F)nc32)CC(Cl)=NO1 (centres unmarked) and give its recorded pre-emergence activity against ZEAMX in % (crop plant damage).
Reply: 0%

Ask: Supply pre-emergence activity against ZEAMX in % (crop plant damage) value. Item: CCOCCS(=O)(=O)N1C[S+]([O-])c2cc(C)c(-c3ccccc3F)nc21 (centres unmarked)
Reply: 20%

Ask: Look up pre-emergence activity against ZEAMX in % (crop plant damage) of Cc1cc2c(nc1-c1ccccc1F)N(C(=O)C1(C)CC(Cl)=NO1)CS2 (centres unmarked) and report it.
Reply: 10%

Ask: Give the reported value of pre-emergence activity against ZEAMX in % (crop plant damage) for this record: Cc1ccccc1-c1nc2c(cc1C)SCN2C(=O)C1(C)CC(Cl)=NO1 (centres unmarked)
Reply: 20%

Ask: Give the measured pre-emergence activity against ZEAMX in % (crop plant damage) for Fc1ccccc1-c1nc2c(cc1Br)SCN2
Reply: 10%

Ask: Return reported pre-emergence activity against ZEAMX in % (crop plant damage). Input compound: CCS(=O)(=O)N1CSc2cc(C)c(-c3ccccc3F)nc21
Reply: 20%

Ask: Report measured pre-emergence activity against ZEAMX in % (crop plant damage); entry is O=C(C1CCCC1)N1CSc2cc(Br)c(-c3ccccc3F)nc21
Reply: 0%

###

Test system: Oryza sativa (ORYZA)
Test: Post-emergence effects on crop plants, section F (Table F3)
Assay type: in vivo
Settings: crop plant damage, application rate 320 g/ha
Method: Seeds of mono- and dicotyledonous weed plants and crop plants were sown, in plastic or organic planting pots, in sandy loam, covered with soil and grown in a greenhouse under controlled growth conditions. […] The test plants were placed in the greenhouse for ca. 3 weeks under optimum growth conditions, and then the effect of the preparations was assessed visually in comparison with untreated controls (herbicidal effect in percent (%): 100% effect=plants have died off, 0% effect=as control plants). […]
Entries and their measured post-emergence activity against ORYZA in % follow.
Quick note: give the figure in %, leave out the unit.

Ask: Item BN1CSc2cc(Br)c(-c3ccccc3C)nc21 [Example I-011] : provide post-emergence activity against ORYZA in %
Reply: 0

Ask: Give the measured post-emergence activity against ORYZA in % for Cc1cc2c(nc1-c1ccccc1F)N(C(=O)C1(C)CC(Cl)=NO1)CS2 (stereo not shown) [Example I-083]
Reply: 10

Ask: Return post-emergence activity against ORYZA in % (reported value) for this compound: COC(=O)CCC(=O)N1CSc2cc(Cl)c(-c3ccccc3F)nc21 [Example I-003]
Reply: 0

Ask: Identify measured post-emergence activity against ORYZA in % associated with COc1ccccc1-c1nc2c(cc1Br)SCN2B(N)N [Example I-087]
Reply: 0

###

Tested on: Amaranthus retroflexus (AMARE)
Test: Herbicidal pre-emergence action, section A (Table A11)
Type: in vivo
Details: application rate 1280 g/ha
This section presents molecules with their documented pre-emergence activity against AMARE in % values.
Report the figure in % without appending any unit label.

Here's what some known entries look like.
molecule	units	endpoint result
COC(=O)CCC(=O)N1CSc2cc(C)c(-c3ccc(F)cc3F)nc21 [Example I-084]	%	90
Fc1c(Cl)cccc1-c1nc2c(cc1Br)SCN2 [Example I-103]	%	90

Now turn to the next molecule.
Ask: Answer with the recorded pre-emergence activity against AMARE in % of COc1ccccc1-c1nc2c(cc1Br)SCN2B(N)N [Example I-087] only.
Reply: 90

###

Tested on: Digitaria sanguinalis (DIGSA)
Experiment: Herbicidal pre-emergence action, section C (Table C12)
Format: in vivo
Conditions: Digitaria sanguinalis, pre-emergence, 504 h; application rate 80 g/ha; visual grading after ca. 3 weeks; read-out: pre-emergence activity against DIGSA in %
Description: Seeds of mono- and dicotyledonous weed plants and crop plants were sown, in plastic or organic planting pots, in sandy loam and covered with soil. The compounds according to the invention, formulated in the form of wettable powders (WP) or as emulsifiable concentrates (EC), were applied to the surface of the covering soil as aqueous suspension or emulsion, with the addition of 0.5% of an additive, at an application rate of 600 l of water/ha (converted). […]
Recorded pest or weed control at 80 g/ha, one value per entry.
Please append the unit to your numeric answer.

molecule	endpoint result
CCS(=O)(=O)N1CSc2cc(C)c(-c3ccccc3F)nc21 [Example I-060]	100%
CCOCCS(=O)(=O)N1C[S+]([O-])c2cc(C)c(-c3ccccc3F)nc21 (stereo not shown) [Example I-127]	100%

Ask: Provide one value: measured pest or weed control at 80 g/ha of Cc1cc2c(nc1-c1ccccc1F)NCS2 [Example I-007]
Reply: 100%

Ask: Report pest or weed control at 80 g/ha, nothing else, for this molecule: Cc1cc2c(nc1-c1ccccc1Cl)NCS2 [Example I-049]
Reply: 90%

###

Recorded pest or weed control at 320 g/ha for the following molecules
Tested on: Alopecurus myosuroides (ALOMY)
Assay: Herbicidal pre-emergence action, section C (Table C2)
Type: in vivo
Settings: Alopecurus myosuroides, pre-emergence, 504 h; application rate 320 g/ha; visual grading after ca. 3 weeks vs untreated controls; read-out: pre-emergence activity against ALOMY in %
Source text: Seeds of mono- and dicotyledonous weed plants and crop plants were sown, in plastic or organic planting pots, in sandy loam and covered with soil. The compounds according to the invention, formulated in the form of wettable powders (WP) or as emulsifiable concentrates (EC), were applied to the surface of the covering soil as aqueous suspension or emulsion, with the addition of 0.5% of an additive, at an application rate of 600 l of water/ha (converted). […]
Respond with the bare value in %.

Ask: // output pest or weed control at 320 g/ha; input CC(C)C(=O)N1C[S+]([O-])c2cc(Br)c(-c3ccccc3)nc21 (stereo not drawn) [Example I-067] ; system Alopecurus myosuroides (ALOMY)
Reply: 90
